// optical density lookup, one value per entry
target: mouse ACVR2A (mouse, UniProt P27038 20-135, limits assumed); assay: ELISA; further: test concentration or dose not given here
Sequence (P27038 20-135 limits assumed): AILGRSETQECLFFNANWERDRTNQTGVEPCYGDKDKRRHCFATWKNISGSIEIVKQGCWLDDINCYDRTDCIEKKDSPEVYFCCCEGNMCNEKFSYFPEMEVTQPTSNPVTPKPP
Please reply with the bare figure in OD and do not write the unit itself.

# BINDER, optical density, OD
records = [
    ("374_F10 (antibody, V domains shown, VH/VL only) VH: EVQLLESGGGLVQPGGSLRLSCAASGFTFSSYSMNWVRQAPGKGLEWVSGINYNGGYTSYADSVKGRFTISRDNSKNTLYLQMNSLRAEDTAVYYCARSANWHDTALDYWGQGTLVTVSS VL: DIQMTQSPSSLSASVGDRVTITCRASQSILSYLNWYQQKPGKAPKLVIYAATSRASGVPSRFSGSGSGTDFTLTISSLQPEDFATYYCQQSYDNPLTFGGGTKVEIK", 3.45),
]

Now take the following binder into account.
Task item: Data request, read-out optical density, for 368_H07 (antibody, V domains shown, VH/VL only) VH: EVQLLESGGGLVQPGGSLRLSCAASGFTFSSYGMHWVRQAPGKGLEWVASINYNSGYTSYADSVKGRFTISRDNSKNTLYLQMNSLRAEDTAVYYCARSATWHDTHLDYWGQGTLVTVSS VL: DIQMTQSPSSLSASVGDRVTITCRASQSILSYLNWYQQKPGKAPKLLIYAATSRASGVPSRFSGSGSGTDFTLTISSLQPEDFATYYCQQSYENPLTFGGGTKVEIK
Reply: 2.86

Values were extracted from patent US20210380703A1.
